- subjectOfTest: T1, PUF4 RNA-binding domain (Saccharomyces cerevisiae, UniProt P25339 537-888)
- T1 sequence: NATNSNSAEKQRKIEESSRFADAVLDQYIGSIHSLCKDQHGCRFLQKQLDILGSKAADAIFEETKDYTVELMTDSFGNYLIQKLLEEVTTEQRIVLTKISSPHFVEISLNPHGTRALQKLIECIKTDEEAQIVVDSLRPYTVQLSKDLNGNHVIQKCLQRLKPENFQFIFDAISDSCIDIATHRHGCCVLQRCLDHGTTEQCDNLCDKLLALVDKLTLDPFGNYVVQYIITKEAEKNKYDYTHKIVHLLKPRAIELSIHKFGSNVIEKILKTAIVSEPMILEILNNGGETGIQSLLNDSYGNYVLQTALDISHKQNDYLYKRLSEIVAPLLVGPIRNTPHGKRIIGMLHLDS
- protocolNotes: Mg; RNA-MaP; 20 mM Na-HEPES pH 7.4, 30 mM KOAc, 0.75 mM MgCl2, 0.1% Tween-20, 5% glycerol, 0.1 mg/mL BSA, 2 mM DTT; 25 C; 0.0125-409.6 nM protein
- testConditions: tags: N-His6-TEV cleaved; C-SNAP kept, Cy3B-labelled; label: tethered on chip by stalled RNA polymerase
// assign TRUE if Kd falls strictly below 200 nM, else FALSE (ties count as FALSE)

The examples below pair each entry with its known result.
| binder | label |
| --- | --- |
| ACAAACGUACACUAUACCACAAAC (ssRNA) [Id_ii_S3_P3E.4_K3.3_C3.2_[C-2G]_H3.3_A3.1_F3.1_T3.2_[T9C]_[A10C]] | TRUE |
| Id_ii_S2_P3E.4_K3.3_C3.2_[C-2T]_[T-1C]_H3.3_A3.1_F3.1_T3.2 (ssRNA) RNA: UUUGAUUAAUAUGAUAUCGUUCUUUCUUCACACUAUAUAUUCUUUCUCGAUAUCAUAUUAAUCUUU | FALSE |
| Id_ii_S2_P4E.2_K4.1_C4.2_[T-1A]_H4.1_A4.1_F4.1_T4.2_[G10A] (ssRNA) RNA: UUUGAUUAAUAUGAUAUCGUUCUUUCUCAUGUAUAUUAAUUUCUUUCUCGAUAUCAUAUUAAUCUUU | TRUE |

# input for lookup
Hello, is Kd of the following binder strictly smaller than 200 nM? UCUCUUUGUAGUUUCCUCUCUU (ssRNA) [Ic_S1_P5E.1_K5.1_C5.1_H5.1_A5.1_[T5G]_[A7T]_F5.1_[T9C]_[A10C]_T5.1]
FALSE

These data points were gathered from paper PMC9352680.
